Assay: yeast display, Sf9 membrane polyspecificity reagent, FACS + sequencing; frameworks hold sequencing errors
readoutLabel: polyreactivity (PSR sort gate)

Here are 6 sequences together with their reported answers.
{"residueCodes": "QVQLVESGGGLVQAGGSLRLSCAASGSIISGYAMGWYRQAPGTERELVAAISSSGGRTYYADSVKGRFTISRDNAKNTVYLQMNSLKPEDTAVYYCAAAYTITYDYWGQGTQVTVSS", "readoutLabel": "polyreactivity (PSR sort gate)", "result": "high polyreactivity"}
{"residueCodes": "QVQLVESGGGLVQAGGSLRLSCAASGFTFYKYAMGWYRQAPGKEREFVASITVRTGSTSYADSVKGRFTISRDNAKNTVYLQMNSLKPEDTAVYYCAAETYYYSWYYLGYTYDYWGHGTQVTVSS", "readoutLabel": "polyreactivity (PSR sort gate)", "result": "high polyreactivity"}
{"residueCodes": "QVHLVESGGGLVQAGGSLRLSCAASGFTFSYYAMGWYRQAPGKERELVAVISDRGGITYYADSVKGRFTISRDNAKNTVYLQMISLKPEDTAVYYCAAQNPRYNYRYYYWGQGTQVTVSS", "readoutLabel": "polyreactivity (PSR sort gate)", "result": "low polyreactivity"}
{"residueCodes": "QVQLVESGGGLVQAGGSLRLSCAASGSTFPKYGMGWYRQAPGKESEFVARINWNGGGTYYADSVKGRFTISRDNAKNTVYLQMNSLKPEDTAVYYCNARKRGARFILGYDYWGQGTQVTVSS", "readoutLabel": "polyreactivity (PSR sort gate)", "result": "low polyreactivity"}
{"residueCodes": "QVQIVESGGGLVQAGGSLRLSCAASGSIFTYNAMGWYRQAPGKERELVAAISYSGVRTYYADSVKGRFTISRDNAKNTVYLQMNRLKPVDTAVYYCNTRYPYSVLKYGYWGQGTQVTVSS", "readoutLabel": "polyreactivity (PSR sort gate)", "result": "high polyreactivity"}
{"residueCodes": "QVQLVESGGGLVQAGGSLRLSCAASGSIFYTYTMGWYRQAPGKERELVAAISWSGGSTYYADSVKGRFTISRDNAKNTVYLQMISLKPEDTAVYYCAAYGTGYYGYDYWGQGTQVTVSS", "readoutLabel": "polyreactivity (PSR sort gate)", "result": "low polyreactivity"}

List reported polyreactivity (PSR sort gate) for each of these sequences:
1. QVQLLESGGGLVQAGCSLRLSCAASGFTFKSNAMGWYRQAPGKESELVARINRSGGSTYYADSVKGRFTISRYNAKNTVYLQMNSLKPEDTAVYYCARGRYTLYESKYDYWGQGTQVTVSS
2. QVQLVESGGGLVQAGGSLRLSCAASGSIFSANAMGWYRQAPGKERELVASITGDGSTNYADSVNGRFTISRDNAKNTVYLQMNSLKPEDTAVYYCAVDRGRRGMDYWGQGTQVTVSS

1. high polyreactivity
2. low polyreactivity

* * *

Test: yeast display, Sf9 membrane polyspecificity reagent, FACS + sequencing; frameworks hold sequencing errors
readoutLabel: polyreactivity (PSR sort gate)

These recorded examples may help you get a feel for the data.
{"residueCodes": "QVQLVESGGGLVQAGGSLRLSCAASGRIFQYNTMGWYRQAPGKERELVARISWSGGSTRYADSVKGRFTISRDNAKNTVDLQMNSLKPEETEVYYCAVQEAYRYAHAYYYWGQGTQVTVSS", "polyreactivity (PSR sort gate)": "high polyreactivity"}
{"residueCodes": "QVQLVESGGGLVQAGGSLRLSCAASGNIFGYYAMGWYRQAPGKERELVAAIRTRGGRTYYADSVKGRFTISRDNAKNTVYLQMNSLKPEDTAVYYCAARSIAGFWRYDYWGQGTQVTVSS", "polyreactivity (PSR sort gate)": "high polyreactivity"}
{"residueCodes": "QVQLVESGGGLVQAGGSLRLSCAASGSTFYYYAMGWYRQAPGKERELVAAISWRCSSTYYADSVKGRFTISRDNAKNTVYLQMNSLKPEDTAVYYCAAGYPGRVSGYLFGTRATYYYWGQGTQVTVSS", "polyreactivity (PSR sort gate)": "high polyreactivity"}
{"residueCodes": "QVQLVESGGGLVQAGGSLRVSCAASGYIFYGNTMGWYRQAPGKEWELVAAISYDGGSTYYADSVKGRFTISRDNAKNTVYLQMNSLKPEDTAVYYCAADTFSFRWSDYWGQGTQVTVSS", "polyreactivity (PSR sort gate)": "low polyreactivity"}

Turning now to a further sequence:
Identify the reported polyreactivity (PSR sort gate) for the following entry. "QVQLVESGGGLVQAGGRLRLSCAASGLIFYDNMGWYRQPPGKERELVAAITWSGGSTYYADSVKGRFTISRDNAKNTVYLQMNSLKPEDTAVSYCNADLDSGYGSYDYWGQGTQVTVSS"
low polyreactivity

* * *

Test: yeast display, Sf9 membrane polyspecificity reagent, FACS + sequencing; frameworks hold sequencing errors
readoutLabel: polyreactivity (PSR sort gate)

{"residueCodes": "QVQLVESGGRLVQAGGSLRLSCAASGRTFIGYARGWYRQAPGKERELVAGISWSGGSTYYADSVKGRFTISRDNAKNTVYLQMNSLKPEDTAVYYCAARGRWSTEYGYWGQGTQVTVSS", "polyreactivity (PSR sort gate)": "low polyreactivity"}
{"residueCodes": "QVQLVESGGGLVQAGGSLRFSCAASGRIFSGNGMGWYRQAPGKEREFVAAIRFSSGSTYYADSVKGRFTISRDNAKNTVYLQMNSLKPEDTAVYYCARPSIPRRYDYWGQGTQVTVSS", "polyreactivity (PSR sort gate)": "high polyreactivity"}
{"residueCodes": "QVQLVETGGGLVQAGGSLSLSCAASGYIFEINAKGWYRQAPGKERELVADIRRGDSTNYADSVKGRFTISRDNSMNTVYLQMNSLKPEDTAVYYCAAYHRLFDYDYCGQGTQVTVSS", "polyreactivity (PSR sort gate)": "high polyreactivity"}
{"residueCodes": "QVQLVESGGGLVQAGGSLRLSCAASGSTFVRYAMGWYRQAPGKERELVAAISGGGSTSYADSVKGRFTISRDNAKNTVYLQMNSLKPEDTAVYYCAAEKYRWENDAYQYYTFDYWGQGTQVTVSS", "polyreactivity (PSR sort gate)": "low polyreactivity"}
{"residueCodes": "QVQLVESGGGLVQAGGSLRLSCAASGLISYAYAMGWYRQAPGKERELVAAIRSSGSTYYADSVKGRFTISLDNAKNTVYLQMNSLKPEDTAVYYCAKRNPIKYYGGGYWGQGTQVTVSS", "polyreactivity (PSR sort gate)": "high polyreactivity"}
{"residueCodes": "QVQLVESGGGLVQAGGSLSLSCAASGRTFGPYAMGWYRKAPGKERELVAVISGRGTSTYYADSVKGRFTISRDNAKNTVYLQMNSLKPEDTAVYYCNADYGSWYWGFDYWGQGTQVTVSS", "polyreactivity (PSR sort gate)": "low polyreactivity"}
{"residueCodes": "QVQLVESGGGLVQAGGSLRLSCAASGYTFGTYAMGWYRQAPGKERELVAAITTNVGSTYYADSVKGRFTISRDNAKNTVYLQMNSLKPEDTAVYYCAADVGWRFGDITYWAYDYWGQGTQVTVSS", "polyreactivity (PSR sort gate)": "low polyreactivity"}
{"residueCodes": "QVQLVESGGGLVQAGGSLRLICAASGRILDIYALGWYRQAPGKERELVASISGSGSSTYYADSVKGRVTISRDNAKNTVYLQMNSLKPEDSAVYYCNAARSQGYEYATYGYWGQGSQVTVSS", "polyreactivity (PSR sort gate)": "low polyreactivity"}

Report polyreactivity (PSR sort gate) for every entry below.
1. QVQLVESGGGLVQAGGSLRLSGAASGIIVPDYAMGWNKQAPGKERELVPDISFSAGSTYYADSVKGRFTISRDNAKNTVYLQMNSLKPDDTAVYVCAADQTSSYYDPWGDYWGQGTQVTVSS
2. QVQLVESGGGLVQAGGSLRLSCAASGSIFGNNAMGWYRQAPGKERELVAAITSSGGSTYYADSVKGRFTISRDNAKNTVYLQMNSLKPEDTAVYYCATEWSGYTYWFYEWEYGYWGQGTQVTVSS
3. QVQLVESGGGLVQAGGRLRLSCAASGRTFGSYAMGWYRQAPGKERELVAAISWSDGSTYYADSVKGRFTISRDNAKNTVYLQMNSLKPEDTAVYYCHWAKWYRYGGYRSRFDYWGQGTQVTVSS

["low polyreactivity", "high polyreactivity", "low polyreactivity"]

* * *

Assay: yeast display, Sf9 membrane polyspecificity reagent, FACS + sequencing; frameworks hold sequencing errors
readoutLabel: polyreactivity (PSR sort gate)

{"residueCodes": "QVQLVESGGGLVQAGGSLRLSCAASGNIFYVYAMGWYRQAPGKERELVAVISRNDGSTYYADSVKGRFTISRDNAKNTVYLQMNSLKPEDTAVYYCNAEWYFWGQGTQVTVSS", "polyreactivity (PSR sort gate)": "low polyreactivity"}
{"residueCodes": "QVQLVESGGGLVQAGGSLRLSCAASGSIFGVYAMGWYRQAPGQERELVAVITWSDGGTYYADSVKGRFTISRDNAKNTVYLQMNSLKPEDTAVYYCAKERYDYSYDYWGQGTQVTVSS", "polyreactivity (PSR sort gate)": "high polyreactivity"}
{"residueCodes": "QDQLGESGGGLVQAGGSLRLICAASGRIFVSNTMGCYRQAPGKERELVATISRRGGITYYADSVKGRFTISRDNAKNTVYLQMNSLKPEDTAVYYCAAESYSFWLYDYCGQGTQVTVSS", "polyreactivity (PSR sort gate)": "high polyreactivity"}
{"residueCodes": "QVQLVETGGGLVQAGGILRLSCAASGSIFKAYAMGWYRQAPGKERELVAAITWSGGSTYYADSVKGRFTNSRDNAKNTVYLQMNSLKPEDTAVYYCAATLGLWAYYLYDYWGQGTQVTVSS", "polyreactivity (PSR sort gate)": "low polyreactivity"}
{"residueCodes": "QVQLVESGGGLVQAGGSLRLSCAASGIIFRSYAMGWYRQAPGKERELVAAITGGGTTNYADSVKGRFTISRDNAKNTVYLQMNSLKPEDTAVYYCNAGLDWFWFNEMDYWGQGTQVTGSS", "polyreactivity (PSR sort gate)": "low polyreactivity"}

Fill in polyreactivity (PSR sort gate) for each of the 4 sequences listed.
1. QVQLVESGGGLVQAGGSLRLSCAASGRTFWYYAMGWYRQAPGKERELVASISRSGGSTYYADSVKGRFTISRDNAKNTVYLQMNSLKPEDTAVYYCARGSELGYYAWVYYWGQGTQVTVSS
2. QVQHVETGGGLVQAGGSLRLSCAASGLAFAMGWYSQAPGTERELVASITGSGDSTYYADSVKGRFTISRDNAKNTVYLQMNSQKPEDTAVYYCGARTYYNYAPRYYYWGQGTQVTVSS
3. QVQLVESGGGLVQAAGSLRLICAASGRIFDVYAMGWYRPAPGKERELVAAITWSGTSTYYADSVKGRFTISRDNAKNTVYLQMNSLKPEDTAVYYCAAEVAYTDTEYFWYYYWGQGTQVTVSS
4. QVQLVESGGGLVQAGGSLRLSCAASGYTLRIYAMGWYRQAPGKERELVAAISRSGGRTFYADSVKGRFTISRDNAKNTVYLQMISLTPEDTAVFYCAAVSAYYYRRTYEYWGQGTQVTVSS

high polyreactivity
low polyreactivity
high polyreactivity
high polyreactivity

Below are some sequences; for each one, tell me its polyreactivity (PSR sort gate).
1. QVQLVESGGGLVQAGGSLRLSCAASGSTFVYYAMGWYRQAPGKERELGAAITASGGGTYYADSVKGRFTISRDNAKNTVYLQMNSLKPEDTAVYYCNRGYDYWGQGTQVTVSS
2. QVQLVESGGGLVQAGGSLRLTCAASGNIYLYYAMGWYRQAPGKERELVADIDSSGASTYYADSVKGRFTSSRDNAKNTVYLQMNSLKAEDTAVYYCAAEFHWWYAGYDYGYWGQGTQVTVSS

low polyreactivity
low polyreactivity
